These data points were gathered from patent US20230304010A1.

# Target Or Test System: SARS-CoV-2 Spike (SARS-CoV-2), P0DTC2
Measured Property: IC50 (µM)
Field format: number, assumed µM, no unit text.

Return reported IC50; argument: EQAKTFLDKFNHEAEDLF (modifications not checked) [Seq24 (LNCOV-19)]
570
